- SUBJECT_OF_TEST: T1, recombinant human IL1RAP ECD (human, UniProt Q9NPH3 21-367)
- T1 construct: His-tagged; also called hIL1RAP-ECD; rhuIL1RAP
- T1 sequence: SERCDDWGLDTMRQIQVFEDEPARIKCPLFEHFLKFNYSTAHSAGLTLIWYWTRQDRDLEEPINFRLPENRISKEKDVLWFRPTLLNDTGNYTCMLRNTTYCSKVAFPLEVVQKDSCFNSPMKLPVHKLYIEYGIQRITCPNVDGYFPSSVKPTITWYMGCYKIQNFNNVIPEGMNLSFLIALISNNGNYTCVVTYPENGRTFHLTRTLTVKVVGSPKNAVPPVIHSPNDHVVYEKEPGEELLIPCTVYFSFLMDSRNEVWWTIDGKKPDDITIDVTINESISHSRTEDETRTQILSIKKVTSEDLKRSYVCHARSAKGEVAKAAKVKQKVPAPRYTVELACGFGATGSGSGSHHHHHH
- ASSAY_INFO: SPR (ProteOn)
Attribute: kon
Numbers only; they are read as M⁻¹ s⁻¹.

Answered cases to consult:
[[record]]
binder = "IAPB54 (antibody, human IgG4 S228P, lambda, F234A L235A, V domains shown, IgG4-PAA; also called 17B04 with human IgG4-PAA) VH: QVQLVQSGSELKKPGASVKVSCKASGYTFNTYAMNWVRQAPGQGLEWMGWINTNTGNPTYAQGFTGRFVFSLDTSVSTAYLQISSLKAEDTAVYYCARRYFDWLLGAFDIWGQGTMVTVSS VL: QSALTQPRSVSGSPGHSVTISCTGTSSDVGDYNYVSWYQQRPGKVPKLLIYDVSKRPSGVPDRFSGSKSGNTASLTISGLQAEDEAIYFCCSYAGNYNVVFGGGTKLTVLG"
quantity = "kon"
observed_value = 965000

[[record]]
binder = "IAPB64 (antibody, human IgG4 S228P, lambda, F234A L235A, V domains shown, IgG4-PAA; whole chains; also called IAPB54-LC-C91S) VH: QVQLVQSGSELKKPGASVKVSCKASGYTFNTYAMNWVRQAPGQGLEWMGWINTNTGNPTYAQGFTGRFVFSLDTSVSTAYLQISSLKAEDTAVYYCARRYFDWLLGAFDIWGQGTMVTVSS VL: QSALTQPRSVSGSPGHSVTISCTGTSSDVGDYNYVSWYQQRPGKVPKLLIYDVSKRPSGVPDRFSGSKSGNTASLTISGLQAEDEAIYFCSSYAGNYNVVFGGGTKLTVLG"
quantity = "kon"
observed_value = 638000

[[record]]
binder = "IAPB65 (antibody, human IgG4 S228P, kappa, F234A L235A, V domains shown, IgG4-PAA; whole chains; also called IAPB4-HC-G103A; IgG4-PAA, B4 mutant) VH: QVQLVQSGAEVKKPGSSVKVSCKASGGTFSSYAISWVRQAPGQGLEWMGGISAIFGTANYAQKFQGRVTITADESTSTAYMELSSLRSEDTAVYYCARHLHNAIHLDYWGQGTLVTVSS VL: EIVLTQSPATLSLSPGERATLSCRASQSVSNFLAWYQQKPGQAPRLLIYGASNRATGIPARFSGSGSGTDFTLTISSLEPEDFAVYYCQQGKHWPWTFGQGTKVEIKR"
quantity = "kon"
observed_value = 329000


Here's the next entry for you.
Ask | Fill in kon for record IAPB04 (antibody, human IgG4 S228P, kappa, F234A L235A, V domains shown, IgG4-PAA; also called IAPB4; phage hit B4) VH: QVQLVQSGAEVKKPGSSVKVSCKASGGTFSSYAISWVRQAPGQGLEWMGGISAIFGTANYAQKFQGRVTITADESTSTAYMELSSLRSEDTAVYYCARHLHNGIHLDYWGQGTLVTVSS VL: EIVLTQSPATLSLSPGERATLSCRASQSVSNFLAWYQQKPGQAPRLLIYGASNRATGIPARFSGSGSGTDFTLTISSLEPEDFAVYYCQQGKHWPWTFGQGTKVEIKR
Reply | 295000
